The entries below come with measured Activity values attached.
# tested_on: Angiotensin II receptor (Rattus norvegicus) (UniProt P29089+P25095+P35351)
# test_details: In vitro agonist activity relative to angiotensin II measured in rabbit aorta strip assay.
# Assay type: functional, tissue-based
Square brackets hold non-standard residues; d marks the D form. Peptide text beside a SMILES is read from it. Sar = CNCC(=O)O
Hi! Could you send only the number? It should be in %, unit omitted.

compound	tested_on	Activity [%]
CC[C@H](C)[C@H](NC(=O)[C@@H]1CCCN1C(=O)[C@H](Cc1c[nH]cn1)NC(=O)[C@@H](NC(=O)[C@H](Cc1ccc(O)cc1)NC(=O)[C@@H]1CCCN1C(=O)[C@H](CCCN=C(N)N)NC(=O)CNC)[C@@H](C)CC)C(=O)O (H-[Sar]RPYIHPI-OH)	Angiotensin II receptor (Rattus norvegicus) (UniProt P29089+P25095+P35351)	1.5

From here, focus on the item given below.
Task item: Query: Activity; subject: CC[C@H](C)[C@H](NC(=O)[C@@H]1CCCN1C(=O)[C@H](Cc1c[nH]cn1)NC(=O)[C@H](C)NC(=O)[C@H](Cc1ccc(O)cc1)NC(=O)[C@@H](NC(=O)[C@H](CCCN=C(N)N)NC(=O)CNC)C(C)C)C(=O)O (H-[Sar]RVYAHPI-OH)
Reply: 0

* * *

# tested_on: Angiotensin II receptor (Rattus norvegicus) (UniProt P29089+P25095+P35351)
# test_details: In vitro agonist activity relative to angiotensin II measured in rabbit aorta strip assay.
# Assay type: functional, tissue-based
Square brackets hold non-standard residues; d marks the D form. Peptide text beside a SMILES is read from it. NMeA = CN[C@@H](C)C(=O)O; Ac5c = NC1(C(=O)O)CCCC1; Sar = CNCC(=O)O
readout_kind: Activity
The reply must contain the numeric value and, after it, the unit.

For orientation, consider the following solved cases.
compound	readout_kind	result
CC[C@H](C)[C@H](NC(=O)[C@@H]1CCCN1C(=O)[C@H](Cc1c[nH]cn1)NC(=O)[C@@H]1CCCN1C(=O)[C@H](Cc1ccc(O)cc1)NC(=O)[C@@H](NC(=O)[C@H](CCCN=C(N)N)NC(=O)CNC)C(C)C)C(=O)O (H-[Sar]RVYPHPI-OH)	Activity	0%
CC[C@H](C)[C@H](NC(=O)[C@@H]1CCCN1C(=O)[C@H](Cc1c[nH]cn1)NC(=O)C1(NC(=O)[C@H](Cc2ccc(O)cc2)NC(=O)[C@@H](NC(=O)[C@H](CCCN=C(N)N)NC(=O)CNC)C(C)C)CCCC1)C(=O)O (H-[Sar]RVY[Ac5c]HPI-OH)	Activity	0%
CNCC(=O)N[C@@H](CCCN=C(N)N)C(=O)N[C@H](C(=O)N[C@@H](Cc1ccc(O)cc1)C(=O)NC1(C(=O)N[C@@H](Cc2c[nH]cn2)C(=O)N2CCC[C@H]2C(=O)N[C@@H](Cc2ccccc2)C(=O)O)CCCC1)C(C)C (H-[Sar]RVY[Ac5c]HPF-OH)	Activity	70%

From here, focus on the item given below.
Task item: Query: Activity; subject: CC[C@H](C)[C@H](NC(=O)[C@@H]1CCCN1C(=O)[C@H](Cc1c[nH]cn1)NC(=O)[C@@H](NC(=O)[C@H](Cc1ccc(O)cc1)NC(=O)[C@H](C)N(C)C(=O)[C@H](CCCN=C(N)N)NC(=O)CNC)[C@@H](C)CC)C(=O)O (H-[Sar]R[NMeA]YIHPI-OH)
Reply: 0%

* * *

# tested_on: Angiotensin II receptor (Rattus norvegicus) (UniProt P29089+P25095+P35351)
# test_details: In vitro agonist activity relative to angiotensin II measured in rabbit aorta strip assay.
# Format: functional, tissue-based
readout_kind: Activity (%)
Hi! Could you send only the number? It should be in %, unit omitted.

molecule	quantitative_readout
CC[C@@H](C)[C@@H](NC(=O)[C@H](Cc1ccc(O)cc1)NC(=O)[C@H](C)N(C)C(=O)[C@H](CCCN=C(N)N)NC(=O)CNC)C(=O)N[C@@H](Cc1c[nH]cn1)C(=O)N1CCC[C@H]1C(=O)NC(Cc1ccccc1)C(=O)O (stereo in doubt)	0

From here, focus on the item given below.
Task item: Query: Activity; subject: CC[C@H](C)[C@H](NC(=O)[C@H](Cc1ccc(O)cc1)NC(=O)[C@@H](NC(=O)[C@H](CCCN=C(N)N)NC(=O)CNC)C(C)C)C(=O)N[C@@H](Cc1c[nH]cn1)C(=O)N1CCC[C@H]1C(=O)N[C@@H](Cc1ccccc1)C(=O)O
Reply: 180

* * *

# tested_on: Angiotensin II receptor (Rattus norvegicus) (UniProt P29089+P25095+P35351)
# test_details: In vivo antagonist activity (ANG II like) expressed by blood pressure increase (mHg) produced by […] iv injection of compound in rats
# Format: functional, organism-based
Square brackets hold non-standard residues; d marks the D form. Peptide text beside a SMILES is read from it. NMeA = CN[C@@H](C)C(=O)O; Sar = CNCC(=O)O
The entries below come with measured ID50 (ng min-1 rat-1) values attached.
Give a plain numeric answer without units written out.

For orientation, consider the following solved cases.
compound	quantitative_readout
CC[C@H](C)[C@H](NC(=O)[C@H](C)N(C)C(=O)[C@H](Cc1c[nH]cn1)NC(=O)[C@@H](NC(=O)[C@H](Cc1ccc(O)cc1)NC(=O)[C@@H](NC(=O)[C@H](CCCN=C(N)N)NC(=O)CNC)C(C)C)[C@@H](C)CC)C(=O)O (H-[Sar]RVYIH[NMeA]I-OH)	20
CC[C@@H](C)[C@@H](NC(=O)[C@H](Cc1ccc(O)cc1)NC(=O)[C@H](C)N(C)C(=O)[C@H](CCCN=C(N)N)NC(=O)CNC)C(=O)N[C@@H](Cc1c[nH]cn1)C(=O)N1CCC[C@H]1C(=O)NC(Cc1ccccc1)C(=O)O (stereo in doubt)	100

From here, focus on the item given below.
Task item: Form field: ID50 (ng min-1 rat-1) recorded for CC[C@H](C)[C@H](NC(=O)[C@@H]1CCCN1C(=O)[C@H](Cc1c[nH]cn1)NC(=O)[C@@H]1CCCN1C(=O)[C@H](Cc1ccc(O)cc1)NC(=O)[C@@H](NC(=O)[C@H](CCCN=C(N)N)NC(=O)CNC)C(C)C)C(=O)O (H-[Sar]RVYPHPI-OH) with Angiotensin II receptor (Rattus norvegicus) (UniProt P29089+P25095+P35351) (enter value)
Reply: 20

* * *

# tested_on: Angiotensin II receptor (Rattus norvegicus) (UniProt P29089+P25095+P35351)
# test_details: In vivo antagonist activity (ANG II like) expressed by blood pressure increase (mHg) produced by […] iv injection of compound in rats
# Assay type: functional, organism-based
Square brackets hold non-standard residues; d marks the D form. Peptide text beside a SMILES is read from it. Ac5c = NC1(C(=O)O)CCCC1; Aib = CC(C)(N)C(=O)O; Sar = CNCC(=O)O
The entries below come with measured ID50 (ng min-1 rat-1) values attached.
Give a plain numeric answer without units written out.

For orientation, consider the following solved cases.
compound	ID50 (ng min-1 rat-1)
CC[C@H](C)[C@H](NC(=O)[C@@H]1CCCN1C(=O)[C@H](Cc1c[nH]cn1)NC(=O)[C@@H](NC(=O)[C@H](Cc1ccc(O)cc1)NC(=O)C(C)(C)NC(=O)[C@H](CCCN=C(N)N)NC(=O)CNC)[C@@H](C)CC)C(=O)O (H-[Sar]R[Aib]YIHPI-OH)	50
CC[C@H](C)[C@H](NC(=O)[C@@H]1CCCN1C(=O)[C@H](Cc1c[nH]cn1)NC(=O)[C@H](C)NC(=O)[C@H](Cc1ccc(O)cc1)NC(=O)[C@@H](NC(=O)[C@H](CCCN=C(N)N)NC(=O)CNC)C(C)C)C(=O)O (H-[Sar]RVYAHPI-OH)	50
CC[C@H](C)[C@H](NC(=O)[C@@H]1CCCN1C(=O)[C@H](Cc1c[nH]cn1)NC(=O)[C@](C)(Cc1ccc(O)cc1)NC(=O)[C@H](Cc1ccc(O)cc1)NC(=O)[C@@H](NC(=O)[C@H](CCCN=C(N)N)NC(=O)CNC)C(C)C)C(=O)O	100

From here, focus on the item given below.
Task item: Query: ID50 (ng min-1 rat-1); subject: CC[C@H](C)[C@H](NC(=O)[C@@H]1CCCN1C(=O)[C@H](Cc1c[nH]cn1)NC(=O)C1(NC(=O)[C@H](Cc2ccc(O)cc2)NC(=O)[C@@H](NC(=O)[C@H](CCCN=C(N)N)NC(=O)CNC)C(C)C)CCCC1)C(=O)O (H-[Sar]RVY[Ac5c]HPI-OH)
Reply: 10

* * *

# tested_on: Angiotensin II receptor (Rattus norvegicus) (UniProt P29089+P25095+P35351)
# test_details: In vivo agonist activity expressed as percent activity relative to angiotensin II in rat blood pressure assay.
# Assay type: functional, organism-based
Peptide text beside a SMILES is read from it.
readout_kind: Activity (%)
Hi! Could you send only the number? It should be in %, unit omitted.

Task item: Query: Activity; subject: CC[C@H](C)[C@H](NC(=O)[C@H](Cc1ccc(O)cc1)NC(=O)[C@H](C)NC(=O)[C@H](CCCN=C(N)N)NC(=O)[C@@H](N)CC(=O)O)C(=O)N[C@@H](Cc1c[nH]cn1)C(=O)N1CCC[C@H]1C(=O)N[C@@H](Cc1ccccc1)C(=O)O (H-DRAYIHPF-OH)
Reply: 80.5

All figures here come from ChEMBL document CHEMBL1125769.
